# key: entry, value: IC50
# Target Of Assay: human Nav1.7 (Homo sapiens)
# Sequence (Q15858 1-1977 isoform Q15858-3): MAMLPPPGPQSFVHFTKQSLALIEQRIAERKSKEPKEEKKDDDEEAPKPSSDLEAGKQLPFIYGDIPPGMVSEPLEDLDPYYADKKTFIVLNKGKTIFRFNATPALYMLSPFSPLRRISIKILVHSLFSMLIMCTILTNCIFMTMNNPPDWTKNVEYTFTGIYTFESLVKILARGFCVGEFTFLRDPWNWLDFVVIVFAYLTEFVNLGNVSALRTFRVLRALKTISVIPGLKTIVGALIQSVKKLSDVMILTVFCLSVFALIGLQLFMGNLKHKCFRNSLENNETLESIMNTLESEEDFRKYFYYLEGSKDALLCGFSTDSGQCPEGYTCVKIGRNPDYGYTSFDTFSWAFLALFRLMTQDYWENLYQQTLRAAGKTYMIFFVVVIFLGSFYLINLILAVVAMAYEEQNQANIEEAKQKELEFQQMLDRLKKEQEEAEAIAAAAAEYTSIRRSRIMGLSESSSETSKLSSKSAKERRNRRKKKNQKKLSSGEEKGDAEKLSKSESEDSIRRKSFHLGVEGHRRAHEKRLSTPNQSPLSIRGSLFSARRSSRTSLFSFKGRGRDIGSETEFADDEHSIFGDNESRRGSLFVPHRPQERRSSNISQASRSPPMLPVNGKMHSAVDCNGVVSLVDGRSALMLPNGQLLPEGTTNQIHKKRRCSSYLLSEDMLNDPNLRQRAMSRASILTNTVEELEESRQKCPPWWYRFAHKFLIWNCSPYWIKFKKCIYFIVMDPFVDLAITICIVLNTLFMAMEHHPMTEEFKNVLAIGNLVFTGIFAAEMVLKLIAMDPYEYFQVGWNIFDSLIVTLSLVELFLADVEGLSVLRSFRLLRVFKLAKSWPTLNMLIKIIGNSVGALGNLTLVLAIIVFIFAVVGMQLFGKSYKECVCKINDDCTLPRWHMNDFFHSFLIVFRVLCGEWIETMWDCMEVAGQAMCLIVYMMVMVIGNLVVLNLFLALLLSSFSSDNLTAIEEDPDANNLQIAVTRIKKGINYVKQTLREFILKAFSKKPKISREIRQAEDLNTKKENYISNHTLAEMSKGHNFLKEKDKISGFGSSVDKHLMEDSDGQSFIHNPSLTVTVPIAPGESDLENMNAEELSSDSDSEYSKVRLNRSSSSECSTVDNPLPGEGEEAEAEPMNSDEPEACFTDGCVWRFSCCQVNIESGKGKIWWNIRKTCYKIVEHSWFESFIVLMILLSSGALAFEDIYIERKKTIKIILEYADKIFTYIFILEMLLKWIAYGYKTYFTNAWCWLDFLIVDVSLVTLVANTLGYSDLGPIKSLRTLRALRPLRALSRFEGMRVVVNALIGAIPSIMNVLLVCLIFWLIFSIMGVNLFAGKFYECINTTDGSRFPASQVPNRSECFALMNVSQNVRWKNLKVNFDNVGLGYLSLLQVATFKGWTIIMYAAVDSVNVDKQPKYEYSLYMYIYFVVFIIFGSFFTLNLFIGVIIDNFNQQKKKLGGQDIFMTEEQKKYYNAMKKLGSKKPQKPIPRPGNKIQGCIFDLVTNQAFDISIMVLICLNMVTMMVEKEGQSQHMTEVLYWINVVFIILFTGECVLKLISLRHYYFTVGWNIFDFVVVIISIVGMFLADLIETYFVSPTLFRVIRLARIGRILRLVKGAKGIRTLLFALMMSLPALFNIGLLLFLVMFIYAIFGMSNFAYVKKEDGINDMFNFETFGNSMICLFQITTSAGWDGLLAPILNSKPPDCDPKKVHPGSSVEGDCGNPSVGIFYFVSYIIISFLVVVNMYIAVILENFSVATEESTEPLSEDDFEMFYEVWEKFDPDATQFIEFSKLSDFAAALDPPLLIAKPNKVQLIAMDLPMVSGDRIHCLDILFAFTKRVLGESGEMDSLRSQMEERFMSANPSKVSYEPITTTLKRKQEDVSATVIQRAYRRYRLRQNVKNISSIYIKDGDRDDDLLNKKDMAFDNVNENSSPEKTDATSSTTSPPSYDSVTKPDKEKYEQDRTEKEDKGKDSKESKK
# Assay Overview: FLIPR sodium dye assay (CoroNa Green AM Na+ dye, primary fluorescence assay) in recombinant Nav1.7/HEK293 cells
# Format: cell-based
# Study Conditions: Table 6; CoroNa Green AM Na+ dye primary fluorescence assay; read-out: Nav1.7 Activity (μM) FLIPR assay IC50
Write down the numeric answer in µM and omit the unit.

Solved cases (4 shown):
{"Molecule Smiles": "CN1CCN(c2cc(Oc3ccc(-c4nc(N[C@H]5CCNC5=O)cc(C(N)=O)n4)cc3)ccc2C(F)(F)F)CC1", "IC50 / µM": 1.94}
{"Molecule Smiles": "NC(=O)c1cc(N[C@H]2CCNC2=O)nc(-c2ccc(Oc3ccc(F)cc3)cc2CN2CCCC2)n1", "IC50 / µM": 6.67}
{"Molecule Smiles": "NC(=O)c1cc(N[C@H]2CCNC2=O)nc(N2[C@@H]3CC[C@H]2C[C@H](Oc2ccc(C(F)(F)F)cn2)C3)n1", "IC50 / µM": 1.27}
{"Molecule Smiles": "NC(=O)c1cc(N[C@H]2CCNC2=O)nc(-c2ccc(Oc3ccc(COCC(F)(F)F)cn3)cc2)n1", "IC50 / µM": 1.38}

Next item in the queue.
GET /values?readout=IC50&item= C[C@H](Nc1cc(C(N)=O)nc(N2CCC(Cc3ccccc3)CC2)n1)C(N)=O
1.95

Just for reference, patent US10196364B2 is where these values come from.
